target: acetylcholine receptor; test: SPR, acetylcholine receptor on CM5 chip, peptide 10 µM
Metric: Binding affinity (RU)

Reported Binding affinity (RU) for RRQYRR [6mer-2-543] was 144

Reported Binding affinity (RU) for KRISKR [6mer-2-587] was 148

Reported Binding affinity (RU) for KQLCKK [6mer-2-549] was 142
